molecular target: PRMT5-MEP50 (Homo sapiens, UniProt O14744); construct: The compounds were tested by means of FP with the full-length PRMT5-MEP50 complex; made in house; assay: Direct binding fluorescence polarization (FP) assay of FITC-labeled peptides; settings: FITC-labeled peptide 1 nM, PRMT5-MEP50 titrated, read-out: KD
Sequence (O14744 whole entry): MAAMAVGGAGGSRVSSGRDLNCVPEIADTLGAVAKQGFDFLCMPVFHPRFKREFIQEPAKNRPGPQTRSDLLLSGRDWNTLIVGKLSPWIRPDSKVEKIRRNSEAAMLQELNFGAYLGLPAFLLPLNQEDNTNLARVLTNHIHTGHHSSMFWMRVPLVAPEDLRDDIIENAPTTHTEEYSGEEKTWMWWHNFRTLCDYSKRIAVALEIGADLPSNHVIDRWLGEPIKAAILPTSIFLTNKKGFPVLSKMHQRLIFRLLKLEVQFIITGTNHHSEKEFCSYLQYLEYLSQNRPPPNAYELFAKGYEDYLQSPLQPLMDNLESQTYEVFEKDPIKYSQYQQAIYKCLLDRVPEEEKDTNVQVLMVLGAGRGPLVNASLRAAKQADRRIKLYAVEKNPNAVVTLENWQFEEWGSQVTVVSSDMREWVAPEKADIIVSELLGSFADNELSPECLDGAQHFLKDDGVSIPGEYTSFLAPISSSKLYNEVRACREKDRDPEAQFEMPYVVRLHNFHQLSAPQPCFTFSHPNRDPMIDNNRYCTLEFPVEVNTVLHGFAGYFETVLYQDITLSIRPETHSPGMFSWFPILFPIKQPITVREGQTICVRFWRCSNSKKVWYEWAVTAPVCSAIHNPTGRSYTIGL
Sequence (Q9BQA1 whole entry partner): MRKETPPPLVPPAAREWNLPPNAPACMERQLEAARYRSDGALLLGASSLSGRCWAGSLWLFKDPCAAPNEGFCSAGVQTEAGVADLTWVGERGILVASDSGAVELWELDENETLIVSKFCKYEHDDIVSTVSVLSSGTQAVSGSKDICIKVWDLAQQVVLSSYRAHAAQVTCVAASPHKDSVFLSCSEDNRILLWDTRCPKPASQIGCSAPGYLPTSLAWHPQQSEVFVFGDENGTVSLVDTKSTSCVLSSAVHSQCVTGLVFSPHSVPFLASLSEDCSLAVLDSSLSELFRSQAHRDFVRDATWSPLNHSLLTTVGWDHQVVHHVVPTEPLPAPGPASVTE
Square brackets hold non-standard residues; d marks the D form. Peptide text beside a SMILES is read from it. * marks the point of attachment. FITC = O=C1OC2(c3ccc(O)cc3Oc3cc(O)ccc32)c2ccc(NC(=S)*)cc21; NMeD = CN[C@@H](CC(=O)O)C(=O)O
experimental.readout: pKd
Formally, pKd is defined as -log10 of the concentration c, with c in mol/L.

[[record]]
molecule = "CC(C)[C@H](NC(=O)COCCOCCNC(=S)Nc1ccc2c(c1)C(=O)OC21c2ccc(O)cc2Oc2cc(O)ccc21)C(=O)N1CCC[C@H]1C(=O)NCC(=O)N[C@@H](CCC(N)=O)C(=O)N[C@@H](Cc1ccccc1)C(=O)N[C@@H](CC(=O)O)C(=O)N[C@@H](CC(=O)O)C(=O)N[C@@H](C)C(=O)N[C@@H](CC(=O)O)C(N)=O [Compound 28] (HELM PEPTIDE1{[O=C1OC2(c3ccc(O)cc3Oc3cc(O)ccc32)c2ccc(NC(=S)[*:2])cc21].[O=C(COCCOCCN[*:1])[*:2]].V.P.G.Q.F.D.D.A.D.[am]}$$$$V2.0)"
study_target = "PRMT5-MEP50 (Homo sapiens, UniProt O14744)"
val = 6.04


Challenge: Find the recorded pKd belonging to CC(=O)N[C@H](C(=O)N1CCC[C@H]1C(=O)NCC(=O)N[C@@H](CCC(N)=O)C(=O)N[C@@H](Cc1ccccc1)C(=O)N[C@@H](CC(=O)O)C(=O)N[C@@H](CC(=O)O)C(=O)N[C@@H](C)C(=O)N(C)[C@@H](CC(=O)O)C(=O)N[C@@H](CCCCNC(=S)Nc1ccc2c(c1)C(=O)OC21c2ccc(O)cc2Oc2cc(O)ccc21)C(N)=O)C(C)C [Compound 44] (Ac-VPGQFDDA[NMeD]K(FITC)-NH2) and report it.
Response given: 6.22

* * *

biological target: PRMT5-MEP50 (Homo sapiens); construct: The compounds were tested by means of FP with the full-length PRMT5-MEP50 complex; made in house; assay: Direct binding fluorescence polarization (FP) assay of FITC-labeled peptides; settings: supplementary CSV, read-out: PRMT5-MEP50 Kd
pKd: −log10 of the molar value. Square brackets hold non-standard residues; d marks the D form. Peptide text beside a SMILES is read from it. * marks the point of attachment. FITC = O=C1OC2(c3ccc(O)cc3Oc3cc(O)ccc32)c2ccc(NC(=S)*)cc21; Phe(2-Ph) = N[C@@H](Cc1ccccc1-c1ccccc1)C(=O)O; Dab = NCC[C@H](N)C(=O)O; Alloc = C=CCOC(=O)*
experimental.readout: pKd

The following compounds have reported results that may help.
[[record]]
compound = "C=CCOC(=O)NCC[C@H](NC(=O)CNC(=O)[C@@H]1CCCN1C(=O)[C@@H](NC(C)=O)C(C)C)C(=O)N[C@@H](Cc1ccccc1)C(=O)N[C@@H](CC(=O)O)C(=O)N[C@@H](CC(=O)O)C(=O)N[C@@H](C)C(=O)N[C@@H](CC(=O)O)C(=O)N[C@@H](CCCCNC(=S)Nc1ccc2c(c1)C(=O)OC21c2ccc(O)cc2Oc2cc(O)ccc21)C(N)=O [Compound S10] (Ac-VPG[Dab](Alloc)FDDADK(FITC)-NH2)"
study_target = "PRMT5-MEP50 (Homo sapiens)"
val = "< 6.00"

[[record]]
compound = "CC(C)[C@H](NC(=O)[C@H](CCCNC(=N)N)NC(=O)[C@H](CO)NC(=O)COCCOCCNC(=S)Nc1ccc2c(c1)C(=O)OC21c2ccc(O)cc2Oc2cc(O)ccc21)C(=O)N[C@H](C(=O)N1CCC[C@H]1C(=O)N[C@@H]1CCCC[C@H](C(=O)N[C@@H](CC(=O)O)C(=O)N[C@@H](C)C(=O)N[C@@H](CC(=O)O)C(N)=O)NC(=O)[C@H](Cc2ccccc2)NC(=O)[C@H](CCC(N)=O)NC1=O)C(C)C"
study_target = "PRMT5-MEP50 (Homo sapiens)"
val = "< 5.70"


Challenge: Find the recorded pKd belonging to CC(=O)N[C@H](C(=O)N1CCC[C@H]1C(=O)NCC(=O)N[C@@H](CCC(N)=O)C(=O)N[C@@H](Cc1ccccc1-c1ccccc1)C(=O)N[C@@H](CC(=O)O)C(=O)N[C@@H](CC(=O)O)C(=O)N[C@@H](C)C(=O)N[C@@H](CC(=O)O)C(=O)N[C@@H](CCCCNC(=S)Nc1ccc2c(c1)C(=O)OC21c2ccc(O)cc2Oc2cc(O)ccc21)C(N)=O)C(C)C [Compound S22] (Ac-VPGQ[Phe(2-Ph)]DDADK(FITC)-NH2) and report it.
Response given: < 6.00
